Taken from ChEMBL document CHEMBL3259701.

System: Escherichia coli
protocol: Antibacterial activity against Escherichia coli DH5alpha by CLSI broth microdilution method
Assay type: functional
particulars: DH5[alpha]
Listed compounds paired with reported MIC
Please give a number only; it is taken to be in µg/mL.

Task item: # get_value(readout='MIC', item= CC1(C)[C@H](NC(=O)/C(=N\OCc2cc(=O)c(O)cn2O)c2csc(N)n2)C(=O)N1OS(=O)(=O)O )
Reply: 0.125

Task item: # get_value(readout='MIC', item= CC(C)(O/N=C(\C(=O)N[C@H]1CON(C2(C(=O)O)CCC(=O)O2)C1=O)c1csc(N)n1)C(=O)O (stereo not given in full) )
Reply: 0.25

Task item: # get_value(readout='MIC', item= CC[C@H](O)Cn1c(-c2cc(=O)c(O)c[nH]2)nn(S(=O)(=O)[N-]C(=O)N2C[C@H](NC(=O)/C(=N\OC(C)(C)C(=O)[O-])c3csc(N)n3)C2=O)c1=O.[Na+].[Na+] )
Reply: 0.125

Task item: # get_value(readout='MIC', item= Nc1nc(/C(=N/OCc2cc(=O)c(O)cn2O)C(=O)N[C@H]2CON(C3(C(=O)O)CCC(=O)O3)C2=O)cs1 (stereo not given in full) )
Reply: 1

Task item: # get_value(readout='MIC', item= CC(C)(O/N=C(\C(=O)N[C@H]1CON(C2(C(=O)O)C[C@H](N3C(=O)c4cc(O)c(O)cc4C3=O)C(=O)O2)C1=O)c1csc(N)n1)C(=O)O (stereo not given in full) )
Reply: 0.03
